- Measurement Target: UniProt O60674
- Sequence (O60674 whole entry, species assumed): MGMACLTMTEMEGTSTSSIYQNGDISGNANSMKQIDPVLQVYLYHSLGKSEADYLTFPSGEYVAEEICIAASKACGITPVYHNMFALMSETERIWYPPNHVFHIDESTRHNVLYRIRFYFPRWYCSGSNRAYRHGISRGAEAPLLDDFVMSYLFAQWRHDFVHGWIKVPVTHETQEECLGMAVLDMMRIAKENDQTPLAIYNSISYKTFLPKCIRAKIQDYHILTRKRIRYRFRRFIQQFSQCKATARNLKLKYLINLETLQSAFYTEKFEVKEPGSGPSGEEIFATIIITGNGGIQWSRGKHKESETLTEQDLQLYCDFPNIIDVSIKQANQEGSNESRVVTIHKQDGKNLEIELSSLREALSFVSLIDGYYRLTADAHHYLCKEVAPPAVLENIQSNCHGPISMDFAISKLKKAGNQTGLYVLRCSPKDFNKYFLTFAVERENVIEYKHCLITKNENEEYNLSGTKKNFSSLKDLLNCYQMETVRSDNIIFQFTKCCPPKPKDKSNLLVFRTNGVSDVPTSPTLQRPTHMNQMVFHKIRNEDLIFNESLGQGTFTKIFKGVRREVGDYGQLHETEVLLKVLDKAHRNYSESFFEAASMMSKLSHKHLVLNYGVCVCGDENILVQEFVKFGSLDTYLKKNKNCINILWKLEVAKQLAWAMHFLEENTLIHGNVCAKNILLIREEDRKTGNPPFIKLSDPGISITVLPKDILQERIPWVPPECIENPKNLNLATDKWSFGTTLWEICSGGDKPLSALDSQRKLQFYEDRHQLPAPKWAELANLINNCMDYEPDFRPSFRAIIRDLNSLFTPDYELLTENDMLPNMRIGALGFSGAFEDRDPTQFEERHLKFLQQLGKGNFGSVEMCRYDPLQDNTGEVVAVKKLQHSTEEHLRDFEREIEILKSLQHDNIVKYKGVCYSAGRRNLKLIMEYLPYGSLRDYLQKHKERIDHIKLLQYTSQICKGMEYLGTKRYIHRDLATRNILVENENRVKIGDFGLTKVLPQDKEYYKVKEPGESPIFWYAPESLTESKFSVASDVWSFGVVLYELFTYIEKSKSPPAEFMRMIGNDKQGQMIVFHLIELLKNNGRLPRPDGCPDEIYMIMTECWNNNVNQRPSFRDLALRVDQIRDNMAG
Give IC50 for every item shown.

Qu. Determine from records and report IC50 for "C[C@@H](O)c1nc2cnc3[nH]ccc3c2n1[C@H]1CCN(CCC(F)(F)F)C1"
Ans. 100 to 1000 nM

Qu. Determine from records and report IC50 for COc1ccc(-c2nc3cnc4[nH]ccc4c3n2C2CCC(C#N)CC2)c(O)c1 (stereo in doubt)
Ans. 100 to 1000 nM

Qu. Determine from records and report IC50 for CCCCS(=O)(=O)N1CCC(n2c([C@@H](C)O)nc3cnc4[nH]ccc4c32)C1 (some centres unmarked)
Ans. 100 to 1000 nM

Qu. Determine from records and report IC50 for "C[C@@H](O)c1nc2cnc3[nH]ccc3c2n1[C@H]1CCN(CCCCC#N)C1"
Ans. 100 to 1000 nM

Qu. Determine from records and report IC50 for Cc1ncc(-c2nc3cnc4[nH]ccc4c3n2C2CCC(C#N)CC2)s1 (stereo in doubt)
Ans. 10 to 100 nM

Qu. Determine from records and report IC50 for "C[C@@H](O)c1nc2cnc3[nH]ccc3c2n1[C@H]1C[C@@H](CO)N(CCCC(F)(F)F)C1"
Ans. 100 to 1000 nM

Qu. Determine from records and report IC50 for "OCc1ccc(-c2nc3cnc4[nH]ccc4c3n2[C@H]2CCN(CCCC(F)(F)F)C2)o1"
Ans. 10 to 100 nM

Qu. Determine from records and report IC50 for "CCS(=O)(=O)N1CC(CC#N)(n2cc(-n3c(-c4cccs4)nc4cnc5[nH]ccc5c43)cn2)C1"
Ans. < 10 nM

Qu. Determine from records and report IC50 for CS(=O)(=O)c1ccc(C2Nc3cnc4[nH]ccc4c3N2c2ccc(C#N)cc2)cc1 (centres unmarked)
Ans. 100 to 1000 nM

Qu. Determine from records and report IC50 for C[C@@H](O)c1nc2cnc3[nH]ccc3c2n1C1CCN(S(=O)(=O)c2ccc3ccccc3c2)C1 (some centres unmarked)
Ans. > 1000 nM

Qu. Determine from records and report IC50 for C[C@@H](O)c1nc2cnc3[nH]ccc3c2n1C1CCN(S(=O)(=O)c2ccc(-c3ccccc3)cc2)C1 (some centres unmarked)
Ans. > 1000 nM

Qu. Determine from records and report IC50 for C=CC(=O)N1CCC(n2c(-c3ncc[nH]3)nc3cnc4[nH]ccc4c32)C1 (stereo in doubt)
Ans. 100 to 1000 nM

Qu. Determine from records and report IC50 for C[C@@H](O)c1nc2cnc3[nH]ncc3c2n1[C@@H]1CN(CCCC#N)CC1F (some centres unmarked)
Ans. 100 to 1000 nM

Qu. Determine from records and report IC50 for CC(C(=O)NCC(F)(F)F)N1CC[C@H](n2c([C@@H](C)O)nc3cnc4[nH]ccc4c32)C1 (some centres unmarked)
Ans. 100 to 1000 nM

Qu. Determine from records and report IC50 for CCCS(=O)(=O)N1CCC(n2c([C@@H](C)O)nc3cnc4[nH]ccc4c32)C1 (stereo in doubt)
Ans. 100 to 1000 nM

Qu. Determine from records and report IC50 for O=C(NCC(F)(F)F)N1CCC(n2c(-c3cccc(O)c3)nc3cnc4[nH]ccc4c32)C1 (centres unmarked)
Ans. 100 to 1000 nM

Qu. Determine from records and report IC50 for CCS(=O)(=O)N1CCC(n2c([C@@H](C)O)nc3cnc4[nH]ccc4c32)C1 (some centres unmarked)
Ans. 100 to 1000 nM
